Each recorded value in this set is attributed to patent US20040082589A1.

Parameter: melting point. Scope: all listed entries.

Known melting point results, listed for orientation:
* C[C@H](NC(=O)c1c(CN2CCN(C(=O)[C@@H]3C[C@H]3C(=O)O)CC2)c(-c2ccccc2)nc2ccccc12)c1ccccc1 (mixture of isomers) | 135 to 145 °C
* C[C@H](NC(=O)c1c(CN2CCN(C(=O)CCN)CC2)c(-c2ccccc2)nc2ccccc12)C1CCCCC1 | 164 to 166 °C
* CCOC(=O)C(C(=O)N1CCN(Cc2c(-c3ccccc3)nc3ccccc3c2C(=O)N[C@@H](C)C2CCCCC2)CC1)c1ccccc1 (stereo partly shown) | 125 to 129 °C

Now for the compound whose melting point we want.
For this compound ( C[C@H](NC(=O)c1c(CN2CCN(C(=O)/C=C/C(=O)O)CC2)c(-c2ccccc2)nc2ccccc12)c1ccccc1 ), measured melting point is 214 to 215 °C

* * *

Parameter: melting point. Scope: all listed entries.

Known melting point results, listed for orientation:
• C[C@H](NC(=O)c1c(CN2CCN(C(=O)CC(=O)O)CC2)c(-c2ccccc2)nc2ccccc12)C1CCCCC1 [Example 10] = 150 to 155 °C
• C[C@H](NC(=O)c1c(CN2CCN(C(=O)CC(C)(C)CC(=O)O)CC2)c(-c2ccccc2)nc2ccccc12)c1ccccc1 [Example 6] = 213 to 215 °C
• C[C@H](NC(=O)c1c(CN2CCN(C=O)CC2)c(-c2ccccc2)nc2ccccc12)C1CCCCC1 [Example 18] = 116 to 119 °C

For this molecule ( C[C@H](NC(=O)c1c(CN2CCN(C(=O)CCCC(=O)O)CC2)c(-c2ccccc2)nc2ccccc12)C1CCCCC1 [Example 11] ), measured melting point is 125 to 130 °C

For this molecule ( C[C@H](NC(=O)c1c(CN2CCN(C(=O)CCN3CCCCC3)CC2)c(-c2ccccc2)nc2ccccc12)C1CCCCC1 [Example 24] ), measured melting point is 120 to 122 °C

* * *

Parameter: melting point. Scope: all listed entries.

Known melting point results, listed for orientation:
- C[C@H](NC(=O)c1c(CN2CCN(C(=O)c3ccc(C(=O)O)cc3)CC2)c(-c2ccccc2)nc2ccccc12)C1CCCCC1: 185 to 188 °C
- C[C@H](NC(=O)c1c(CN2CCN(C(=O)c3cccc(C(=O)O)c3)CC2)c(-c2ccccc2)nc2ccccc12)C1CCCCC1: 179 to 180 °C
- C[C@H](NC(=O)c1c(CN2CCN(C(=O)c3nccnc3C(=O)O)CC2)c(-c2ccccc2)nc2ccccc12)C1CCCCC1: 162 to 165 °C
- C[C@H](NC(=O)c1c(CN2CCN(C(=O)[C@H]3CCCC[C@H]3C(=O)O)CC2)c(-c2ccccc2)nc2ccccc12)c1ccccc1 (mixture of isomers): 130 to 140 °C
- CCNCCC(=O)N1CCN(Cc2c(-c3ccccc3)nc3ccccc3c2C(=O)N[C@@H](C)C2CCCCC2)CC1: 125 °C

For this molecule ( C[C@H](NC(=O)c1c(CN2CCN(C(=O)c3cncc(C(=O)O)c3)CC2)c(-c2ccccc2)nc2ccccc12)C1CCCCC1 ), measured melting point is 250 to 255 °C (dec.)
